Tested on: CAKI-1 renal
Assay Notes: NCI-60 one-dose screen, 48 h (100 = growth as untreated, 0 = no growth, -100 = all killed)
Reported Conditions: 10 µM unless noted
Compounds without any hit were thinned out: in the full panel of roughly 83,000, 20% have a hit.
// classify(record): look up growth in ranges Low = under 40%, Mid = from 40% up to 80%, High = 80% and over

Check out these entries, answers already filled in.
CN(CCN(C)c1ccc(C(=N)N)cc1)c1ccc(C(=N)N)cc1: Mid
C#CCNC(=O)[C@H](Cc1ccccc1)NC(=O)[C@]12CC[C@@H](C(=C)C)[C@@H]1[C@H]1CC[C@@H]3[C@@]4(C)CCC(=O)C(C)(C)[C@@H]4CC[C@@]3(C)[C@]1(C)CC2: Mid
CC(Sc1nc2ccccc2c(=O)n1CCc1ccc(S(N)(=O)=O)cc1)C(=O)Nc1ccc(Cl)cc1 (centres undefined): Mid

Ask: Sort into band: `O=C(N/N=C/c1cc2ccccc2n2nnnc12)Nc1ccccc1`
Result: High

Ask: Sort into band: `O=C1Nc2cc(-c3ccc(NS(=O)(=O)c4ccccc4)cc3)ccc2/C1=C/c1ccc[nH]1`
Result: High

Ask: Sort into band: `Cc1ccc(NC(=O)c2cc(-c3nc4ccccc4s3)c(=O)n(NS(=O)(=O)c3ccc(Cl)cc3)c2N)cc1`
Result: High

Ask: Sort into band: `CCN(CC)CCn1c(=O)c2cc(OC)c(OC)cc2c2ccc3cc4c(cc3c21)OCO4`
Result: Low

Ask: Sort into band: `COc1cc2nc(-c3ccc(Cl)cc3)cc(OCCCN3CCC(O)CC3)c2cc1OC`
Result: Low

Ask: Sort into band: `COc1cc2nc(-c3ccc(C(F)(F)F)cc3)cc(OCCN3CCCCC3)c2cc1OC`
Result: Mid

Ask: Sort into band: `COc1cc(/C=C\c2cc(OC)c(OC)c(OC)c2)cc(NC(=O)/C=C/c2cc(OC)c(OC)c(OC)c2)c1OC`
Result: Low

Ask: Sort into band: `NC(=O)Nc1ccc(-n2cnc3cc(-c4ccc(O)cc4)ccc32)cc1`
Result: High

Ask: Sort into band: `Cn1c2ccccc2c2c3c(c4c5ccccc5n(C)c4c21)C(=O)OC3`
Result: High

Ask: Sort into band: `N=C(N)c1ccc(OCCCCCCCCCCOc2ccc(C(=N)N)cc2)cc1`
Result: Low

Ask: Sort into band: `O=S(=O)(NCCNc1nccc(-c2c(-c3cccc(O)c3)nc3occn23)n1)c1cccc(F)c1`
Result: Mid
